Reference source for all entries: the RNAGym collection of RNA variant scans (doi:10.1073/pnas.2313332121)

B1: TPR t1 (parent)
chain: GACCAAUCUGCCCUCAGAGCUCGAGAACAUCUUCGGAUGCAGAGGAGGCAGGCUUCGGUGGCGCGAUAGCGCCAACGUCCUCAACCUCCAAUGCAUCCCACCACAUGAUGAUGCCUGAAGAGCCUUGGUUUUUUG

- Variants of: B1
- assayMethodText: polymerase ribozyme fitness, log enrichment relative to wild type (log ratio); higher = more active; in vitro selection for triplet polymerase activity
readoutType: polymerase ribozyme fitness (log ratio)

Field: example entries. Status: answers known.
QUERY: Which polymerase ribozyme fitness (log ratio) is listed for GACCAAUCUGUCCUCAGAGCUCGAGAACAUCUUCGGAUGCAGAGGAGGCAUGCUUCGGUGGCGCGAUAGCGCCAACGUCCUCAACCUCCAAUGCAUCCCACCACAUGAUGAUGCCUGAUGAGCCUUGGUUUUUUG [C11U G51U A119U] ?
RESULT: -3.53

QUERY: What would you report for GACCAAUCUGCCCUCAGAGCUCGAGAACAUCUUCGGAUGCAGAGGAGGCAGGCUUCGGUGGCGCGAUAGCGCCAACGUCCUCAACCUCCAAUGCAUCCCACCACAUGAUGAUGCCUGAAGAGCCUUAGUCUUUUG [G127A U130C] ?
RESULT: -0.727

QUERY: What would you report for GACCAAUCUGCCCUCAGAGCUCGAGUACAUCUUCGGAUGCAGAGGAGGCAGGCUUCGGUGGUGCGAUAGCGCCAACGCCCUCAACCUCCAAUGCAUCCCACCACAUGAUGAUGCCUGAAGAGCCUUGCUUUUUUG [A26U C62U U78C G128C] ?
RESULT: -6.34

QUERY: What would you report for GACCAAUUUGCCCUUAGAGCUCGAGAACAUCUUCGGAUGCAGAGGAGGCAGGCUUCGGUGGCGCGAUAGCGGCAACGUCCUCAACCUCCAAUGCAUCCCACCACAUGAUGAUGCCUGAAUAGCCUUGGUUUUUUG [C8U C15U C72G G120U] ?
RESULT: 1.39

QUERY: What would you report for GACCAAUCUGCGCUCAGAGGUCGAGAACAUCUUCGGAUGCAGAGGAGGCAGGCUUCGGUGGCGCGAUAGCGCCAACGUUCUUAACCUCCAUUGCAUCCCACCACAUCAUGAUGCCUAAAGAGCCUUGGUUUUUUG [C12G C20G C79U C82U A91U G107C G117A] ?
RESULT: -4

Would you be so kind as to report polymerase ribozyme fitness (log ratio) for each listed record?
1. GACCAUUGUGCCCUCAGAGCUCGAGAACAUCUUUGGAUGCAGAGGAGGCAGGUUUCGGUGGCGCGAUAGCGCCAACGUCCUUACCCUCCAAUGCAUCCCACCACAUGAUGAUGCCUGAAGAGCCUUGGUUUUUUG [A6U C8G C34U C53U C82U A84C]
2. GACCAAUCUGCCCUGAGAGCUCGAGAACAUCUUCGGAUGCAGUGGAGGUAGGCUUCGGUGGCGCGAUAGCGCCGACGUCCUCAACCUCCAAUGCAUCCCACCACAUGAUGAUGCCUGAAGAGCCUUGGUUUUUUG [C15G A43U C49U A74G]
3. GACCAAUCUGCCCUCAGAGCUCGAGAACAUCUUCGGAUGCAGAGGAGACAGGCUUCGGUGGCGCGAUAGCGACAACGUCCUCAACCUCCAAUGCAUCCCACCACAUGAUGAUGCCUGAAGAGCCUUGGUUUUUUG [G48A C72A]
4. GACCAAUCUGCCCUCAGAGCUCGAGAACAUCUGCGGAUGCAGAGGAGGCAGGCUUCGGUGGCGCGAUAGUGCCAACGUCCUCAACCUCCAAUGCAUCCCACCACAUGAUGAUGCCUGAAUAGCCUUGGUUUUUUG [U33G C70U G120U]
5. GACCAAGAUGCCCUCAGAGCUCGAGAACAUCUUCGGAUGCAGAAGAGGCAGGCUUCGGUGGCGCGAUAGCGCCAACGUCCUCAACCUCCAAUGCAUCCCACCACAUGAUGAUGCCUGAAGAGACUUGGUUUUUUG [U7G C8A G44A C123A]
6. GACCAAUCUGCCCUCAGAGCUCGAGAACAUCUUCGGAUGCAGAGGAGACAGGCUUCGGUGGCGCGAUAGCGCCAACGUCCUCAACCUCCAAUGCAUCCCACCACAUGAUGAUGCCUGAAGAGCCUUGGUUUUUUU [G48A G135U]

RESULT:
-4.3
-4.91
-0.519
-6.7
1.17
-1.08
